target_system: IP3K-KD (human IP3K-KD A isoform, residues 187–461) (Homo sapiens, UniProt P23677)
Construct: human IP3K-KD A isoform (residues 187–461); GST (cleaved yes)
Sequence (P23677 187-461): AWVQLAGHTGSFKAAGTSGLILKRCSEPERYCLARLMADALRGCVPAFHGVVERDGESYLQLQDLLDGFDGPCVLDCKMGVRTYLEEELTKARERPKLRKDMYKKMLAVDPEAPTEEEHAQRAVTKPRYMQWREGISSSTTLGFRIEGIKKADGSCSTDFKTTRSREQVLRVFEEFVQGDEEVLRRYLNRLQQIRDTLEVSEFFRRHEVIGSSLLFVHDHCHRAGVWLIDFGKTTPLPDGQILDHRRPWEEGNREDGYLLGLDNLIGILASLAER
assay_remarks: Ligand displacement assay: fluorescence polarization (anisotropy) of 2-FITC-InsP3/IP3K-KD complex
assay_setup: 100 nM IP3K-KD, 2 nM 2-FITC-InsP3, 20 mM HEPES pH 7.5, 1 mM EDTA, 50 mM KCl; n=4 replicates; 5-s and 5-p racemic; read-out: IC50, displacement of 2-FITC-InsP3 from IP3K-KD
Reported IC50 by item:
# output: bare number, implied unit nM

O=P(O)(O)OCC1C(O)C(OP(=O)(O)O)C(O)C(OP(=O)(O)O)C1OP(=O)(O)O (racemic) [5-p]
875
O=P(O)(O)OC[C@H]1O[C@H](CO)[C@@H](OP(=O)(O)O)[C@H](OP(=O)(O)O)[C@H]1O [7b–s]
6990

Now for a further compound.
# return recorded IC50 for input O=P(O)(O)O[C@@H]1[C@@H](O)[C@H](CO)[C@@H](OP(=O)(O)O)[C@H](OP(=O)(O)O)[C@H]1O (racemic) [5-s]
972

----------
Reported values of Transition 2 Ti Mean for individual entries
target_system: IP3K-KD (human IP3K-KD A isoform, residues 187–461) (Homo sapiens)
Construct: human IP3K-KD A isoform (residues 187–461); GST (cleaved yes); made in house; host or cells: Escherichia coli BL21 star (DE3)
assay_remarks: Fluorescence thermal shift analysis (Tycho NT.6, inflection temperature Ti)
Assay type: binding
assay_setup: source data of Fig. 6c, N 3

O=P(O)(O)OCC1C(O)C(OP(=O)(O)O)C(O)C(OP(=O)(O)O)C1OP(=O)(O)O (racemic) [5-p]
57.6
O=P(O)(O)O[C@H]1[C@H](O)[C@@H](OP(=O)(O)O)[C@H](OP(=O)(O)O)[C@@H](OP(=O)(O)O)[C@H]1O [InsP4, D-myo-inositol 1,3,4,5-tetrakisphosphate, reference compound]
58.8

Kindly review the next compound as well.
Return value of Transition 2 Ti Mean for input O=P(O)(O)O[C@@H]1[C@H](O)[C@H](O)[C@@H](OP(=O)(O)O)[C@H](OP(=O)(O)O)[C@H]1O [InsP3, D-myo-inositol 1,4,5-trisphosphate, reference compound] , no commentary.
58.2

----------
target_system: IP3K-KD (human IP3K-KD A isoform, residues 187–461) (Homo sapiens, UniProt P23677)
Construct: human IP3K-KD A isoform (residues 187–461); GST (cleaved yes); made in house; host or cells: Escherichia coli BL21 star (DE3)
assay_remarks: Fluorescence thermal shift analysis (Tycho NT.6, inflection temperature Ti)
Type: binding
assay_setup: 10 μM IP3K-KD, 100 μM chiral or 200 μM racemic ligand, AMP-PNP or ADP, 100 μM MgCl2; mean ± SD, n=3
measured_endpoint: Ti, transition 2 (mean inflection temperature)

O=P(O)(O)O[C@@H]1[C@@H](O)[C@H](O)[C@@H](OP(=O)(O)O)[C@H](OP(=O)(O)O)[C@H]1O [1-s, L-scyllo-inositol 1,2,4-trisphosphate]
60.7 ± 0.2 ºC
O=P(O)(O)O[C@H]1[C@H](O)[C@@H](OP(=O)(O)O)[C@H](OP(=O)(O)O)[C@@H](OP(=O)(O)O)[C@H]1O [InsP4, D-myo-inositol 1,3,4,5-tetrakisphosphate, reference compound]
58.8 ± 0.2 ºC

Return Ti, transition 2 (mean inflection temperature) for the following compound: O=P(O)(O)O[C@@H]1[C@H](O)[C@H](O)[C@@H](OP(=O)(O)O)[C@H](OP(=O)(O)O)[C@H]1O [InsP3, D-myo-inositol 1,4,5-trisphosphate, reference compound]
58.2 ± 0.2 ºC

----------
target_system: IP3K-KD (human IP3K-KD A isoform, residues 187–461) (Homo sapiens, UniProt P23677)
Construct: human IP3K-KD A isoform (residues 187–461); GST (cleaved yes); made in house; host or cells: Escherichia coli BL21 star (DE3)
assay_remarks: Fluorescence thermal shift analysis (Tycho NT.6, inflection temperature Ti)
Type: binding
assay_setup: source data of Fig. 6c, N 3
Known Transition 2 DTi (Ti-Ti Apo) of a selection of compounds

Quickly give me recorded Transition 2 DTi (Ti-Ti Apo) for O=P(O)(O)OCC1C(O)C(OP(=O)(O)O)C(O)C(OP(=O)(O)O)C1OP(=O)(O)O (racemic)
3.8

Report measured Transition 2 DTi (Ti-Ti Apo); entry is `O=P(O)(O)OC[C@H]1O[C@H](CO)[C@@H](OP(=O)(O)O)[C@H](OP(=O)(O)O)[C@H]1O`
0.567

----------
Below: a set of entries, each annotated with reported Kd.
target_system: IP3K-KD (human IP3K-KD A isoform, residues 187–461) (Homo sapiens)
Construct: human IP3K-KD A isoform (residues 187–461); GST (cleaved yes)
assay_remarks: Ligand displacement assay: fluorescence polarization (anisotropy) of 2-FITC-InsP3/IP3K-KD complex
assay_setup: estimated Ki (Kd) from IC50 with [2-FITC-InsP3] 2 nM and its Kd 68 nM; read-out: Kd inferred from IC50 (Cheng and Prusoff)
Dear colleague, please return just the value in nM, with no unit written.

O=P(O)(O)O[C@@H]1[C@@H](O)[C@H](CO)[C@@H](OP(=O)(O)O)[C@H](OP(=O)(O)O)[C@H]1O (racemic)
944
O=P(O)(O)OC[C@H]1O[C@H](CO)[C@@H](OP(=O)(O)O)[C@H](OP(=O)(O)O)[C@H]1O
6790

With those in mind, consider the next molecule.
Give Kd for the following molecule: O=P(O)(O)O[C@@H]1[C@@H](O)[C@H](O)[C@@H](OP(=O)(O)O)[C@H](OP(=O)(O)O)[C@H]1O [1-s, L-scyllo-inositol 1,2,4-trisphosphate]
35

----------
target_system: IP3K-KD (human IP3K-KD A isoform, residues 187–461) (Homo sapiens, UniProt P23677)
Construct: human IP3K-KD A isoform (residues 187–461); GST (cleaved yes); made in house; host or cells: Escherichia coli BL21 star (DE3)
assay_remarks: Fluorescence thermal shift analysis (Tycho NT.6, inflection temperature Ti)
Type: binding
assay_setup: source data of Fig. 6c, N 3
measured_endpoint: Transition 1 Ti Mean
The answer should be a number; do not append a unit.

Consider the worked cases shown below.
O=P(O)(O)O[C@@H]1O[C@H](CO)[C@@H](OP(=O)(O)O)[C@H](OP(=O)(O)O)[C@H]1O [6a–s, β-D-glucopyranosyl 1,3,4-trisphosphate]
51.5
CO[C@@H]1O[C@H](CO)[C@@H](O[C@H]2[C@H](O)[C@H](O)[C@@H](OP(=O)(O)O)[C@H](OP(=O)(O)O)[C@H]2O)[C@H]1OP(=O)(O)O
44.5
O=P(O)(O)O[C@H]1[C@H](O)[C@@H](OP(=O)(O)O)[C@H](OP(=O)(O)O)[C@@H](OP(=O)(O)O)[C@H]1O [InsP4, D-myo-inositol 1,3,4,5-tetrakisphosphate, reference compound]
53.5
O=P(O)(O)O[C@@H]1[C@@H](O)[C@H](O)[C@@H](OP(=O)(O)O)[C@H](OP(=O)(O)O)[C@H]1O [1-s, L-scyllo-inositol 1,2,4-trisphosphate]
55.6
O=P(O)(O)OCC1C(O)C(OP(=O)(O)O)C(O)C(OP(=O)(O)O)C1OP(=O)(O)O (racemic)
52.1
CO[C@@H]1O[C@H](CO)[C@@H](O[C@H]2O[C@H](CO)[C@@H](OP(=O)(O)O)[C@H](OP(=O)(O)O)[C@H]2O)[C@H]1OP(=O)(O)O
44.2
O=P(O)(O)O[C@@H]1[C@H](O)[C@H](O)[C@@H](OP(=O)(O)O)[C@H](OP(=O)(O)O)[C@H]1O [InsP3, D-myo-inositol 1,4,5-trisphosphate, reference compound]
52.9
O=P(O)(O)O[C@@H]1[C@@H](O)[C@H](OP(=O)(O)O)[C@@H](OP(=O)(O)O)[C@H](OP(=O)(O)O)[C@H]1O
54.7
O=P(O)(O)O[C@@H]1[C@@H](O)[C@H](CO)[C@@H](OP(=O)(O)O)[C@H](OP(=O)(O)O)[C@H]1O (racemic)
51.3
O=P(O)(O)O[C@H]1O[C@H](CO)[C@@H](OP(=O)(O)O)[C@H](OP(=O)(O)O)[C@H]1O [6b–s, α-D-glucopyranosyl 1,3,4-trisphosphate]
45.7

Proceeding to the next compound to report its Transition 1 Ti Mean.
Given the compound `O=P(O)(O)OC[C@H]1O[C@H](CO)[C@@H](OP(=O)(O)O)[C@H](OP(=O)(O)O)[C@H]1O` , write its reported Transition 1 Ti Mean.
45.6

----------
target_system: IP3K-KD (human IP3K-KD A isoform, residues 187–461) (Homo sapiens, UniProt P23677)
Construct: human IP3K-KD A isoform (residues 187–461); GST (cleaved yes); made in house; host or cells: Escherichia coli BL21 star (DE3)
assay_remarks: Fluorescence thermal shift analysis (Tycho NT.6, inflection temperature Ti)
Assay type: binding
assay_setup: Ti minus Ti of apo IP3K-KD (53.8); mean ± SD, n=3
measured_endpoint: ΔTi, transition 2

O=P(O)(O)OCC1C(O)C(OP(=O)(O)O)C(O)C(OP(=O)(O)O)C1OP(=O)(O)O (racemic)
3.8 ± 0.2 ºC

Using known records, supply ΔTi, transition 2 for `CO[C@@H]1O[C@H](CO)[C@@H](O[C@H]2O[C@H](CO)[C@@H](OP(=O)(O)O)[C@H](OP(=O)(O)O)[C@H]2O)[C@H]1OP(=O)(O)O`
0.3 ± 0.2 ºC

Give ΔTi, transition 2 for the following compound: O=P(O)(O)O[C@H]1[C@H](O)[C@@H](OP(=O)(O)O)[C@H](OP(=O)(O)O)[C@@H](OP(=O)(O)O)[C@H]1O [InsP4, D-myo-inositol 1,3,4,5-tetrakisphosphate, reference compound]
5.0 ± 0.3 ºC
